The reported numbers originate from PubChem BioAssay.

Here, each record is paired with measured liver cell % of control data.
# TEST_SUMMARY: liver-stage malaria parasite load reduction – cell-based, known kinase inhibitor set, luminescence, hepatoma host viability (AID 624392);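 also: infected cells incubated roughly two days before readout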
# CONDITION_INFO: Plasmodium liver stage in hepatoma cells, luciferase luminescence, concentration not given here; measured here: host liver cell viability

- STRUCTURE_SMILES_STRING: "NS(=O)(=O)c1ccc(-c2ccc(C=C3SC(=O)NC3=O)o2)cc1"
  liver cell % of control (%): 89
- STRUCTURE_SMILES_STRING: "CCN1CCN(Cc2ccc(NC(=O)c3ccc(C)c(NC(=O)C(=O)c4c[nH]c5ccccc45)c3)cc2C(F)(F)F)CC1"
  liver cell % of control (%): 69.8
- STRUCTURE_SMILES_STRING: "NS(=O)(=O)c1ccc(-c2cccc(C=C3SC(=O)NC3=O)c2)cc1"
  liver cell % of control (%): 87.7
- STRUCTURE_SMILES_STRING: "COc1cc2ncn(-c3cc(OCCc4ccccc4)c(C(N)=O)s3)c2cc1OC"
  liver cell % of control (%): 140
- STRUCTURE_SMILES_STRING: "C=CC(=O)Nc1cccc(N(C)c2ccnc(Nc3ccc(N4CCN(C)CC4)cc3)n2)c1"
  liver cell % of control (%): 95.1

* * *

// values below are reported fold change
# TEST_SUMMARY: viability loss with induced miR-34 in A549 – imaging, A549 dox-inducible miR-34, nuclei and caspase counts, primary screen (AID 1347080)
# CONDITION_INFO: A549 miR-34 inducible, Hoechst nuclei count, 48 h; stronger effect = lower value; cell number ratio, induced over uninduced

- COMPOUND: "N#CC(C#N)=C(N)/C(C#N)=C/c1ccc2[nH]ccc2c1"
  fold change: 1.01
- COMPOUND: "CCN1CCN(C(=O)NC(C(=O)NC2C(=O)N3C(C(=O)O)=C(CSc4nnnn4C)CS[C@H]23)c2ccc(O)cc2)C(=O)C1=O (some centres undefined)"
  fold change: 0.907
- COMPOUND: "COC(=O)C1C(OC)C(OC(=O)c2cc(OC)c(OC)c(OC)c2)C[C@@H]2CN3CCc4c([nH]c5cc(OC)ccc45)[C@H]3C[C@H]12 (some centres undefined)"
  fold change: 0.925
- COMPOUND: "CCOc1ccc2ccccc2c1C(=O)NC1C(=O)N2C(C(=O)O)C(C)(C)S[C@H]12 (some centres undefined)"
  fold change: 1.19
- COMPOUND: "O=C(C=Cc1ccccc1)NC(NC(=S)Nc1ccc(Cl)cc1)C(Cl)(Cl)Cl (centres undefined)"
  fold change: 0.995
- COMPOUND: "O=C(C=Cc1ccc(O)c(O)c1)OC1C[C@@](O)(C(=O)O)CC(O)C1O (some centres undefined)"
  fold change: 0.936
- COMPOUND: "CO[C@@H]1[C@@H](OC(N)=O)[C@@H](O)C(Oc2ccc3c(O)c(NC(=O)c4ccc(O)c(CC=C(C)C)c4)c(=O)oc3c2C)OC1(C)C (some centres undefined)"
  fold change: 0.855
- COMPOUND: "CC(=CC(=O)OCCCCCCCCC(=O)O)CC1OC[C@H](CC2O[C@H]2C(C)C(C)O)C(O)C1O (some centres undefined)"
  fold change: 0.939
- COMPOUND: "CC(C)c1cccc(O)c(=O)c1"
  fold change: 0.903
